Where do these numbers come from? They come from ChEMBL document CHEMBL1127862.

Biological target: Angiotensin II receptor (Rattus norvegicus, UniProt P29089+P25095+P35351)
Assay: Tested for the binding affinity using radioligand [125I]-Sar1 Ile8-AII in the rat adrenal capsular membranes (adrenal cortex)
Assay type: cell membranes
property: Ki

# annotated cases, reported Ki shown
CCCCc1nc(Cl)c(CO)n1Cc1ccc(-c2nc(C)sc2C(=O)O)cc1
> 10 µM
CCCCc1nc(Cl)c(CO)n1Cc1ccc(-c2cnccc2C(=O)O)cc1
6.7 µM
CCCCc1nc(Cl)c(CO)n1Cc1ccc(-c2ccccc2C(=O)O)s1
> 10 µM
CCCCc1nc(CO)c(Cl)n1Cc1ccc(-c2nc(C)sc2C(=O)O)cc1
> 10 µM
CCCCc1nc(CO)c(Cl)n1Cc1ccc(-c2cccnc2C(=O)O)cc1
> 10 µM

Q: Give its Ki value. Item: CCCCc1nc(Cl)c(CO)n1Cc1ccc(-c2cccnc2C(=O)O)cc1
Ans: 3.3 µM

====

Target: Angiotensin II receptor (Rattus norvegicus, UniProt P29089+P25095+P35351)
Assay: Tested for the binding affinity using radioligand [125I]-Sar1 Ile8-AII in the rat adrenal capsular membranes (adrenal cortex)
Type: cell membranes
property: Ki

These solved cases illustrate the format of a correct answer.
CCCCc1nc(Cl)c(CO)n1Cc1ccc(-c2ccccc2C(=O)O)o1
> 10 µM
CCCCc1nc(Cl)c(CO)n1Cc1ccc(-c2ccoc2C(=O)O)cc1
> 10 µM
CCCCc1nc(CO)c(Cl)n1Cc1ccc(-c2ccoc2C(=O)O)cc1
> 10 µM
CCCCc1nc(Cl)c(CO)n1Cc1ccc(-c2ccsc2C(=O)O)cc1
14.5 µM

Q: Query: Ki; subject: CCCCc1nc(Cl)c(CO)n1Cc1ccc(-c2ncccc2C(=O)O)cc1
Ans: 9.8 µM

Q: Ok, now CCCCc1nc(CO)c(Cl)n1Cc1ccc(-c2ncccc2C(=O)O)cc1
Ans: > 10 µM
